# Assay details: Multiple-dose study of sulopenem delivered intravenously: plasma pharmacokinetics
# Format: in vivo, human
# Protocol conditions: human, plasma, iv, 800 mg, intravenous 800 mg (3 h BID); Day 14
Endpoint: half-life (min)
Give your result in min as a bare value.

What the record says about C[C@@H](O)[C@H]1C(=O)N2C(C(=O)O)=C(S[C@H]3CC[S@@+]([O-])C3)S[C@H]12 [sulopenem] : half-life is 53.3

---

# Assay details: Multiple-dose study of sulopenem delivered intravenously: plasma pharmacokinetics
# Type: in vivo, human
# Protocol conditions: human, plasma, iv, 800 mg, intravenous 800 mg (3 h BID); Day 1
Endpoint: Cmax (ng/mL)
Note: unit ng/mL is implicit; provide only the numeric part.

Query C[C@@H](O)[C@H]1C(=O)N2C(C(=O)O)=C(S[C@H]3CC[S@@+]([O-])C3)S[C@H]12 yields Cmax of 7270

Source: patent US12109197B2
